Assay target: X-box-binding protein 1 (Homo sapiens) (UniProt P17861)
Sequence (P17861 whole entry, looked up): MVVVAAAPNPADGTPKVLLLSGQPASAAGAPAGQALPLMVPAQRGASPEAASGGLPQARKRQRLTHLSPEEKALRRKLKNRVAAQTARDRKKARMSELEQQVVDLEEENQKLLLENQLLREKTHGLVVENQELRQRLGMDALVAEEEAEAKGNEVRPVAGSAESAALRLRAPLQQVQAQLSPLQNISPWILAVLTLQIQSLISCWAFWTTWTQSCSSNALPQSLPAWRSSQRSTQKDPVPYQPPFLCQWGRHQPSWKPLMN
Experiment description: ATG_Xbp1_CIS: Attagene CIS-FACTORIAL HepG2 Assay for human X-box Binding Protein 1 (XBP1) (AID 2282972)
Measurement conditions: HepG2 XBP1 cis-element reporter, Attagene multiplex; actives raise or lower the signal
The source made the active and inactive calls. The calls were made as follows: active = hit-call score of the fitted dose curve at least 0.9, where 1 is the maximum; inactive = score below 0.9.
Measured metric: outcome

The reported outcome value, X-box-binding protein 1 (Homo sapiens) (UniProt P17861), for CCC(=O)OCC=Cc1ccccc1 reads inactive

Form field outcome for item NC(=O)c1cnccn1 on X-box-binding protein 1 (Homo sapiens) (UniProt P17861): inactive

Entry CC1=CC[C@@H]2C[C@H]1C2(C)C ; assay system X-box-binding protein 1 (Homo sapiens) (UniProt P17861); outcome recorded at inactive
